- measurementTarget: human ether-à-go-go-related gene (hERG) potassium channel (human)
- Sequence (Q12809 whole entry, looked up): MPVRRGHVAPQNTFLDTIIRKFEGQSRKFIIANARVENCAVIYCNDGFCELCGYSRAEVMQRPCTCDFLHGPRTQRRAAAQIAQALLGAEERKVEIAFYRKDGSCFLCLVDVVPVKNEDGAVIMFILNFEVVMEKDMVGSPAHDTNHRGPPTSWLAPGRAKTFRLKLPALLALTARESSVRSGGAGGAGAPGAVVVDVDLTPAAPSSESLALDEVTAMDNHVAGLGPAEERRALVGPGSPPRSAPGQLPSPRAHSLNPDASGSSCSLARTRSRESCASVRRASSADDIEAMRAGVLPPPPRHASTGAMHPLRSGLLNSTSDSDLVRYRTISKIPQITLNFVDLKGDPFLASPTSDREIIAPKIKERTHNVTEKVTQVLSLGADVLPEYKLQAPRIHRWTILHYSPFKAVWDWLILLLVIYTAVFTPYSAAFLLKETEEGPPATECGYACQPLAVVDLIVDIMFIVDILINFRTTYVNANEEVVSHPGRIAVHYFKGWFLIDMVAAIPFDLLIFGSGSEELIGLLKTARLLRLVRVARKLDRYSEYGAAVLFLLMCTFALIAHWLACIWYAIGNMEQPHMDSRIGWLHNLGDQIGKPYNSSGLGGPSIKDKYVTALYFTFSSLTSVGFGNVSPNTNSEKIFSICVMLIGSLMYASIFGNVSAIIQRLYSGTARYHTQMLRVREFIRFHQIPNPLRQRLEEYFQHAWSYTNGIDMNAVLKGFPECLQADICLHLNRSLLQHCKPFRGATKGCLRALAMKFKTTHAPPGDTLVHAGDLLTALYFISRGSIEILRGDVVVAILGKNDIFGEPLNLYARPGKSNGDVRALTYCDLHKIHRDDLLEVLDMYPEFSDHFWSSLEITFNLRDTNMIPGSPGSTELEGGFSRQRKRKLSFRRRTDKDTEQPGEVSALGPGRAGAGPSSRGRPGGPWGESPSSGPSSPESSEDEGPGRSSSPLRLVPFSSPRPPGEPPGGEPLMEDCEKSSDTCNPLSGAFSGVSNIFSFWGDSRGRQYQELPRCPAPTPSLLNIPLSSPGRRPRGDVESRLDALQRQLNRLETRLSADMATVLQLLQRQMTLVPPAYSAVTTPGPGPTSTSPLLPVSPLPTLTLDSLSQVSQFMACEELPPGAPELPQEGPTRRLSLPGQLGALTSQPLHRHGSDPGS
- methodSummary: primary screen, population patch clamp on CHO cells stably expressing hERG; higher = less effect of the substance
The whole screen tested about 310,000 compounds, of which about 2,200 (0.71%) showed an effect of 50% or more. Effects have a minus sign here. Only a selection was taken, and strong results are over-represented in it overall.
endpointName: hERG current change (%, negative = inhibition) at 1uM (%)
Write it as a number; the unit % goes unstated.

Please look up its hERG current change (%, negative = inhibition) at 1uM: Cl.c1ccc(Nc2c3c(nc4ccccc24)CCC3)cc1
-33.1

What about this molecule? CC(C)c1csc(CN2CCN(Cc3ccccc3)C(CCO)C2)n1 (stereo not shown)
10.1

What about this molecule? CC(=O)c1cccc(NC(=O)C2CCN(S(C)(=O)=O)CC2)c1
10.7

What about this molecule? O=C(N/C(=C/c1ccc([N+](=O)[O-])cc1)C(=O)N1CCOCC1)c1ccco1
-34.6

What about this molecule? CC(C)c1csc(CN2CCN(Cc3ccc(F)c(F)c3)C(CCO)C2)n1 (stereo not shown)
2.23

What about this molecule? O=C1N(Cc2cccc(Cl)c2)C[C@@H]2C[C@@H](c3cccn3-c3cccnc3)N3CCC[C@@]123
3.63

What about this molecule? COc1cc(Nc2c3c(nc4ccccc24)CCCC3)cc(OC)c1OC
-48.3

What about this molecule? Cc1ccc(C(=O)N/C(=C/c2ccco2)C(=O)N2CCOCC2)cc1
8.19

What about this molecule? Cc1cccc(OCC(=O)Nc2ccc3c(c2)nc(CN2CCCCC2)n3C)c1.Cl
-3.37

What about this molecule? CCC(NS(=O)(=O)c1cccs1)c1ccc(C)cc1 (stereo not shown)
8.69

What about this molecule? O=C1N(Cc2cccc(Cl)c2)C[C@@H]2C[C@@H](c3cccn3-c3ccccn3)N3CCC[C@@]123
-56.9

What about this molecule? CCOc1ccccc1-n1c(SCC(=O)NC(C)CC)nnc1-c1ccoc1C (stereo not shown)
-2.44

What about this molecule? O=C1N(Cc2cccnc2)C[C@@H]2C[C@@H](c3cccc(OCc4ccccc4)c3)N3CCC[C@@]123
-17.8

What about this molecule? Cc1ccc(CN2CCN(Cc3nc(C(C)C)cs3)CC2CCO)cc1 (stereo not shown)
-50.8

What about this molecule? O=C1N(Cc2cccc(Cl)c2)C[C@@H]2C[C@@H](c3cccn3-c3nccs3)N3CCC[C@@]123
-19.2

What about this molecule? O=C1N(Cc2cccc(Cl)c2)C[C@@H]2C[C@@H](c3cccc4cccnc34)N3CCC[C@@]123
-63.8

What about this molecule? CN1CCN(CCc2nc3cc(NC(=O)COc4ccccc4)ccc3n2C)CC1
-13.2

What about this molecule? CCOc1ccc(CN2CCN(Cc3c[nH]c4ccccc34)CC2)cc1.O=C(O)C(=O)O
-85.8

What about this molecule? O=C(N/C(=C\c1cccc([N+](=O)[O-])c1)C(=O)N1CCOCC1)c1ccc([N+](=O)[O-])cc1
-2.31

What about this molecule? COc1ccc(C(=O)NCc2ccc3c(c2)OCO3)c(OC)c1
13.6

What about this molecule? CC(=O)c1ccc(NC(=S)N2CCN(c3cccc(Cl)c3)CC2)cc1
12.6

What about this molecule? COC(=O)C1=C(c2cc3ccccc3o2)C[C@@H]2CC[C@H]1N2C(=O)NC1CCCCC1
-7.33

What about this molecule? COc1cc(NS(=O)(=O)c2ccc(NC(=O)/C=C/C(=O)O)cc2)nc(OC)n1
5.24

What about this molecule? CCCCNC(=O)C1C2C=CC3(CN(Cc4ccc(C)cc4)C(=O)C13)O2 (stereo not shown)
13.1

What about this molecule? CCN(CC)CC(=O)NN=C(c1ccccc1)c1ccccc1
-78.2

What about this molecule? O=C1N(Cc2cccc(Cl)c2)C[C@@H]2C[C@@H](c3ccccn3)N3CCC[C@@]123
7.23

What about this molecule? CCN1CCN(C(=O)/C(=C/c2ccco2)NC(=O)c2ccccc2)CC1
-57.1

What about this molecule? Cc1cc(C)c(S(=O)(=O)Cc2ccc(Cl)cc2)c(=O)[nH]1
9.42

What about this molecule? O=C1N(Cc2cccc(Cl)c2)C[C@@H]2C[C@@H](c3cccc4ncccc34)N3CCC[C@@]123
-2.07

What about this molecule? O=C(O)C(=O)O.O=[N+]([O-])c1cccc(CN2CCN(Cc3ccc(Cl)cc3)CC2)c1
-27.2

What about this molecule? O=C1N(Cc2cccnc2)C[C@@H]2C[C@@H](c3cccc(Oc4ccccc4)c3)N3CCC[C@@]123
-4.79

What about this molecule? Cn1c(CCN2CCCCC2)nc2cc(NC(=O)COc3ccc(Cl)cc3)ccc21
-89.6

What about this molecule? O=C1N(Cc2cccnc2)C[C@@H]2C[C@@H](c3cccc(OC4CCCC4)c3)N3CCC[C@@]123
-53.3

What about this molecule? Cc1ccc(OCC(=O)Nc2ccc3c(c2)nc(CCN2CCN(C)CC2)n3C)cc1
-5.14

What about this molecule? Cc1c(C(=O)Nc2ccc(S(=O)(=O)N(C)C3CCN(C)CC3)cc2)oc2ccccc12
3.99

What about this molecule? CN1CCN(CCc2nc3cc(NC(=O)COc4ccc(Cl)cc4)ccc3n2C)CC1
-7.52

What about this molecule? O=C(CCl)NN=C(c1ccccc1)c1ccccc1
5.28
